target desc: zGlyR α1 (Danio rerio, UniProt O93430)
Construct: Full-length cDNAs encoding zebrafish GlyR α1 and βb and human GlyR α1 and β subunits were used in this study
Sequence (O93430 25-444): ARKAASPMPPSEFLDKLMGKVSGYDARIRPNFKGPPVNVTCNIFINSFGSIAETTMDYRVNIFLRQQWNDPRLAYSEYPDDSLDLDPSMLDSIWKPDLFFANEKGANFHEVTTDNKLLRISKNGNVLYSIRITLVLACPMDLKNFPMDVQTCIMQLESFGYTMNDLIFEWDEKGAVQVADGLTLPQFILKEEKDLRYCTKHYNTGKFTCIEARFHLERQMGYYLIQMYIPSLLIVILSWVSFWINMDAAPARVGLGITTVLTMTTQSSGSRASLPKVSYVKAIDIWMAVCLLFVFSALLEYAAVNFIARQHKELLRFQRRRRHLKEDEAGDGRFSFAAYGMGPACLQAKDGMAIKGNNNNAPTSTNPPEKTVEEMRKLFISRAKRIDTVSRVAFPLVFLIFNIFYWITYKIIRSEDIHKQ
assay summary: two-electrode voltage-clamp of Xenopus oocytes expressing homomeric zebrafish α1 GlyR
condition info: mean ± SEM, 10 oocytes; read-out: EC50 of glycine-dependent gating
quantity name: pEC50
Keep in mind that pEC50 stands for -log10 of concentration in molar terms.

Form field: reported pEC50 of NCC(=O)O
3.95
